Tested on: Mus musculus
test details: Effect on hypothermia in Swiss albino mouse assessed as change in rectal body temperature at 5 mg/kg, ip after 30 mins by inducible hypothermia test
Format: functional, organism-based
Set-up: dose 5 mg/kg
Listed next: entries and their corresponding deltaT.
measurement label: deltaT (°C)

smiles str: COc1ccc(-c2c3n(c(=O)n(CCCCN4CCC(c5c[nH]c6ccccc56)CC4)c2=O)CCCC3)cc1
tgt: Mus musculus
measured: -0.5

smiles str: O=c1c(-c2ccccc2F)c2n(c(=O)n1CCCCN1CCC(c3c[nH]c4ccccc34)CC1)CCCC2
tgt: Mus musculus
measured: -0.3

smiles str: COc1ccc2[nH]cc(C3CCN(CCCCn4c(=O)c(-c5ccc(C)cc5)c5n(c4=O)CCCC5)CC3)c2c1
tgt: Mus musculus
measured: -0.3

smiles str: COc1ccc2[nH]cc(C3CCN(CCCCn4c(=O)c(-c5ccccc5F)c5n(c4=O)CCCC5)CC3)c2c1
tgt: Mus musculus
measured: -0.7

smiles str: Cc1ccc(-c2c3n(c(=O)n(CCCCN4CCC(c5c[nH]c6ccccc56)CC4)c2=O)CCCC3)cc1
tgt: Mus musculus
measured: -0.6

smiles str: COc1ccc(-c2c3n(c(=O)n(CCCCN4CCC(c5c[nH]c6ccc(OC)cc56)CC4)c2=O)CCCC3)cc1
tgt: Mus musculus
measured: -1.1

* * *

Listed next: entries and their corresponding pKi.
tgt: Sodium-dependent serotonin transporter (Rattus norvegicus)
Sequence (P31652 whole entry): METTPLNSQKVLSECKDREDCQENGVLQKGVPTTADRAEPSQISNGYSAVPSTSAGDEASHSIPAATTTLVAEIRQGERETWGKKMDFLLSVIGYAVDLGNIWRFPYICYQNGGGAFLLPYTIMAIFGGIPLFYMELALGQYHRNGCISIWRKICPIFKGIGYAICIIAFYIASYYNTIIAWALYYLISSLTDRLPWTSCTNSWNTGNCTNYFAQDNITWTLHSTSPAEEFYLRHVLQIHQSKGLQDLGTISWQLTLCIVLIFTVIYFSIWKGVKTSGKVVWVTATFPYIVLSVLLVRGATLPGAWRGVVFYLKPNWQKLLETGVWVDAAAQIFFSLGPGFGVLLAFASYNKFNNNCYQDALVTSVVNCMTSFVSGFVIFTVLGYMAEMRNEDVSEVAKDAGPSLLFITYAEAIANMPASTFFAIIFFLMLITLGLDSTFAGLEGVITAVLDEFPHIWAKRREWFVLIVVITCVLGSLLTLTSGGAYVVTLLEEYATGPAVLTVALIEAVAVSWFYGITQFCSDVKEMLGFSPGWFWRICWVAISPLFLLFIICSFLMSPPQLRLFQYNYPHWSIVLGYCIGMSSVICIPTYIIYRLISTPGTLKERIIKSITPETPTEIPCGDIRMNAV
pKi: −log10 of the molar value.
measurement label: pKi

smiles str: COc1ccc2[nH]cc(C3CCN(CCCCn4c(=O)c(-c5ccccc5F)c5n(c4=O)CCCC5)CC3)c2c1
measured: 6.73
--
smiles str: Cc1ccc(-c2c3n(c(=O)n(CCCCN4CCC(c5c[nH]c6ccccc56)CC4)c2=O)CCCC3)cc1
measured: 7.12
--
smiles str: COc1ccc(-c2c3n(c(=O)n(CCCCN4CCC(c5c[nH]c6ccccc56)CC4)c2=O)CCCC3)cc1
measured: 7.15
--
smiles str: O=c1c(-c2ccccc2Cl)c2n(c(=O)n1CCCCN1CCC(c3c[nH]c4ccccc34)CC1)CCCC2
measured: 6.99
--
smiles str: Cc1ccc(-c2c3n(c(=O)n(CCCCN4CCC(c5c(C)[nH]c6ccccc56)CC4)c2=O)CCCC3)cc1
measured: 6.94
--
smiles str: Cc1[nH]c2ccccc2c1C1CCN(CCCCn2c(=O)c(-c3ccccc3F)c3n(c2=O)CCCC3)CC1
measured: 6.03
--
smiles str: Cc1[nH]c2ccccc2c1C1CCN(CCCCn2c(=O)c(-c3ccccc3Cl)c3n(c2=O)CCCC3)CC1
measured: 6.32
--
smiles str: Cc1ccccc1-c1c2n(c(=O)n(CCCCN3CCC(c4c[nH]c5ccccc45)CC3)c1=O)CCCC2
measured: 6.91
--
smiles str: COc1ccc2[nH]cc(C3CCN(CCCCn4c(=O)c(-c5ccc(Cl)cc5)c5n(c4=O)CCCC5)CC3)c2c1
measured: 6.65
--
smiles str: Cc1[nH]c2ccccc2c1C1CCN(CCCCn2c(=O)c(-c3ccc(F)cc3)c3n(c2=O)CCCC3)CC1
measured: 6.94
--
smiles str: O=c1c(-c2ccccc2F)c2n(c(=O)n1CCCCN1CCC(c3c[nH]c4ccccc34)CC1)CCCC2
measured: 6.99
--
smiles str: Cc1[nH]c2ccccc2c1C1CCN(CCCCn2c(=O)c(-c3ccccc3)c3n(c2=O)CCCC3)CC1
measured: 6.56
--
smiles str: COc1ccccc1-c1c2n(c(=O)n(CCCCN3CCC(c4c(C)[nH]c5ccccc45)CC3)c1=O)CCCC2
measured: 6.14
